target_or_test_system: CtermHisTag-mEGFR Wild type (Homo sapiens)
Sequence (P00533 whole entry): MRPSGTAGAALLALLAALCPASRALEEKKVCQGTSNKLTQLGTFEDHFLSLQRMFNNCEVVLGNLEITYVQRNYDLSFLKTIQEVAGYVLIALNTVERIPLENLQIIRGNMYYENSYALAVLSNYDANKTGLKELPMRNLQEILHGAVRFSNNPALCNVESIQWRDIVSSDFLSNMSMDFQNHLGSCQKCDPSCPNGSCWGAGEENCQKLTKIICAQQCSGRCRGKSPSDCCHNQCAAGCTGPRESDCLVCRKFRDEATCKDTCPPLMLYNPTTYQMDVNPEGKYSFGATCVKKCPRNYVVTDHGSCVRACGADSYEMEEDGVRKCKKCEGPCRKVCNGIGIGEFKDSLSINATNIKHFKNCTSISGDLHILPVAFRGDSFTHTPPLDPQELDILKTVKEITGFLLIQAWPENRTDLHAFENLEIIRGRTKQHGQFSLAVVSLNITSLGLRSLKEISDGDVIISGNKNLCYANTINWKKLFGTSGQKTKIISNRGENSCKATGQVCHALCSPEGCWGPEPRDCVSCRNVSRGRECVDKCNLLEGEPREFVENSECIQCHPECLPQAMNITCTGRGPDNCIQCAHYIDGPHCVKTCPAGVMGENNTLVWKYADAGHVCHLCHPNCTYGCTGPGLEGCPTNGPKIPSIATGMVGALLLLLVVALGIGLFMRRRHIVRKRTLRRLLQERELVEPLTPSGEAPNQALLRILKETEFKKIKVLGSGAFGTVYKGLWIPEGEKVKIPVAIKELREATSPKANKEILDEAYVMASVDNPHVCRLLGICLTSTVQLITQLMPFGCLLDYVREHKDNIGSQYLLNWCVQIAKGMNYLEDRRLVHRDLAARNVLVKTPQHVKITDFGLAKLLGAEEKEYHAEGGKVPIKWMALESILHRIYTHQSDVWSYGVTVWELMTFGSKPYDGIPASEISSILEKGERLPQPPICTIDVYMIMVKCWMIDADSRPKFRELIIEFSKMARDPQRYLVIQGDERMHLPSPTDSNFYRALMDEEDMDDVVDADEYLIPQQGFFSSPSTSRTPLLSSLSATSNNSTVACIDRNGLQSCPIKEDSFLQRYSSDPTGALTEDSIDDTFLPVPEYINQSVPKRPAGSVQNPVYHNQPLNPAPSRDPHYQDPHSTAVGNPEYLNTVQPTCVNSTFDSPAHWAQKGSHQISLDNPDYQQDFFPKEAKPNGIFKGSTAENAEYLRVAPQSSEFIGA
protocol: biochemical
IC50 values by entry

> print(dat)
                                   molecule   result
1  C=Cc1c(-c2ccccc2Cl)c(=O)n(C)c2nc(Nc3ccc(N(C)CCN(C)C)cc3)ncc12  > 10 µM

Turning now to a further molecule:
Read the entry C#Cc1cc(=O)n2c3nc(ncc13)Nc1ccc(N3CCN(C)CC3)c(c1)CC(=O)NCC2 and write its reported IC50.
> 10 µM

---

target_or_test_system: Phospho-EGFR (Tyr1068) in H1975 cells (Homo sapiens, UniProt P00533, L858R/T790M)
Construct: host or cells: H1975
Sequence (P00533 25-1210 T790M/L858R): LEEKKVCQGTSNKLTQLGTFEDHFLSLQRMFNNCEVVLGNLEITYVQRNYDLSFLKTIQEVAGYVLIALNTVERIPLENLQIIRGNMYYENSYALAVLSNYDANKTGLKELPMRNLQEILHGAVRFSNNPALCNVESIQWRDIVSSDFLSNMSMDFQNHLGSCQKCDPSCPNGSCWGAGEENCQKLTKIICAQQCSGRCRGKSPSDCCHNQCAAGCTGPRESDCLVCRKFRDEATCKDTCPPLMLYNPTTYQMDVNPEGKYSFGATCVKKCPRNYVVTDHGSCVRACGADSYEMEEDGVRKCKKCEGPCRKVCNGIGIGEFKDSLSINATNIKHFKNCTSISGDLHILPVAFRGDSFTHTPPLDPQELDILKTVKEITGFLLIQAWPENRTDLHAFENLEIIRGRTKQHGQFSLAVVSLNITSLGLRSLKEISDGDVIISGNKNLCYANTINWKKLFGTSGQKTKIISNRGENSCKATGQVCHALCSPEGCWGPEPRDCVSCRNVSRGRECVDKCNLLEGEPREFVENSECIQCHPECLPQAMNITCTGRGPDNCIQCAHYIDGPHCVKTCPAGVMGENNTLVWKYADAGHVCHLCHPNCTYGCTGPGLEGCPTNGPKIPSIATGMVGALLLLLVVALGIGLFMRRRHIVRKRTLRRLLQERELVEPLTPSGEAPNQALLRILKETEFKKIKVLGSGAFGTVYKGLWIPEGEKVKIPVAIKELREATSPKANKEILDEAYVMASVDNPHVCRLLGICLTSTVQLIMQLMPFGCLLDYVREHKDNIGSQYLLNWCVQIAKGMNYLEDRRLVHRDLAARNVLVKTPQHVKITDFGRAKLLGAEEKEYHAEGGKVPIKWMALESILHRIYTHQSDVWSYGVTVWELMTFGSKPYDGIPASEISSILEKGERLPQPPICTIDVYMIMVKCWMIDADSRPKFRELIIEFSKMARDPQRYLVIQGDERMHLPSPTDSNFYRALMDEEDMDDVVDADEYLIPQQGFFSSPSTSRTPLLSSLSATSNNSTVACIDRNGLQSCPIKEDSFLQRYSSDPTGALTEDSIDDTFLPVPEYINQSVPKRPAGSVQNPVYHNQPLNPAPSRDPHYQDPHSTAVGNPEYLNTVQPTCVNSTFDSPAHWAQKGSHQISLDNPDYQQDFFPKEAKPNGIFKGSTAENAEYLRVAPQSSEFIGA
protocol: HTRF pEGFR/total EGFR in H1975 cells
Assay type: cell-based
applied_conditions: ratio pEGFR/total EGFR, compound 3 hours
IC50 values by entry

Some solved cases for reference:
> print(dat)
                              smiles.record                     target.or.test.system  measured.endpoint           result
1  C#Cc1cc(=O)n(-c2ccc(NC(=O)CC)cc2)c2nc(Nc3ccccc3OC)ncc12  Phospho-EGFR (Tyr1068) in H1975 cells (Homo sapiens, UniProt P00533, L858R/T790M)               IC50        > 3000 nM
2  C#Cc1c(C)c(=O)n(Cc2ccn[nH]2)c2nc(Nc3ccc(N4CCN(C)CC4)cc3)ncc12  Phospho-EGFR (Tyr1068) in H1975 cells (Homo sapiens, UniProt P00533, L858R/T790M)               IC50  1000 to 3000 nM
3  C#Cc1cc(=O)n(Cc2ccn(C)n2)c2nc(Nc3ccc(N4CCN(C)CC4)cc3)ncc12  Phospho-EGFR (Tyr1068) in H1975 cells (Homo sapiens, UniProt P00533, L858R/T790M)               IC50         < 500 nM
4  C#Cc1cc(=O)n2c3nc(ncc13)Nc1ccc(N3CCN(C)CC3)c(c1)CN(C)C(=O)CC2  Phospho-EGFR (Tyr1068) in H1975 cells (Homo sapiens, UniProt P00533, L858R/T790M)               IC50         < 500 nM
5  C#Cc1cc(=O)n(-c2cccc([N+](=O)[O-])c2)c2nc(Nc3ccccc3OC)ncc12  Phospho-EGFR (Tyr1068) in H1975 cells (Homo sapiens, UniProt P00533, L858R/T790M)               IC50        > 3000 nM
6  C#Cc1cc(=O)n2c3nc(ncc13)Nc1ccc(N3CCN(C)CC3)c(c1)OCCCC2  Phospho-EGFR (Tyr1068) in H1975 cells (Homo sapiens, UniProt P00533, L858R/T790M)               IC50         < 500 nM
7  C#Cc1c(-c2cccs2)c(=O)n(C)c2nc(Nc3ccc(N4CCN(C)CC4)cc3)ncc12  Phospho-EGFR (Tyr1068) in H1975 cells (Homo sapiens, UniProt P00533, L858R/T790M)               IC50        > 3000 nM

Turning now to a further compound:
Read the entry C#Cc1c(C)c(=O)n2c3nc(ncc13)Nc1ccc(N3CCN(C)CC3)c(c1)OCCCC2 and write its reported IC50.
< 500 nM
